These data points were gathered from paper PMC6332448.

Molecular target: NDM-1 (Klebsiella pneumoniae)
Sequence (C7C422 29-270, looked up, species assumed): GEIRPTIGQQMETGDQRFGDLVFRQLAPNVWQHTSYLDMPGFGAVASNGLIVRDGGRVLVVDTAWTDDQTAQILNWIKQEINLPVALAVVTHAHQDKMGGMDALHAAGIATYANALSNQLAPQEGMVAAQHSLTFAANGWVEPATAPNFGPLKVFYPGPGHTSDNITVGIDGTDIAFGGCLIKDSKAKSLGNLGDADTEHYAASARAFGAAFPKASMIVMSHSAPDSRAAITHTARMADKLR
Assay: biochemical
Type: biochemical
Conditions: 300 μM imipenem, 10 mM HEPES pH 7.5, 25 °C; average of at least two independent assays; read-out: NDM-1 IC50
pIC50: −log10 of the molar value.
# label = bin(measured pIC50), where bins are lower bin (below 4), middle bin (4 to below 5), upper bin (5 or more)

{"columns": ["molecule", "category_label"],
 "data": [
  ["O=C(O)c1cccc(NS(=O)(=O)Cc2ccccc2)n1", "middle bin"],
  ["O=C(O)c1ccc(NS(=O)(=O)Cc2ccccc2)cn1", "upper bin"],
  ["O=C(O)c1ncccc1NS(=O)(=O)Cc1ccc(Cl)cc1", "middle bin"],
  ["O=C(O)c1cccc(C(=O)NCc2nccs2)n1", "lower bin"],
  ["N#Cc1cccc(S(=O)(=O)Nc2cccnc2C(=O)O)c1", "lower bin"],
  ["O=C(O)c1ncccc1NS(=O)(=O)Cc1cccc(C(F)(F)F)c1", "middle bin"],
  ["CS(=O)(=O)Nc1cccnc1C(=O)O", "middle bin"],
  ["O=C(O)c1ccc(NS(=O)(=O)c2ccccc2)cn1", "upper bin"]
]}

* * *

Molecular target: UniProtKB P52699
Sequence (P52699 19-246, looked up, species assumed): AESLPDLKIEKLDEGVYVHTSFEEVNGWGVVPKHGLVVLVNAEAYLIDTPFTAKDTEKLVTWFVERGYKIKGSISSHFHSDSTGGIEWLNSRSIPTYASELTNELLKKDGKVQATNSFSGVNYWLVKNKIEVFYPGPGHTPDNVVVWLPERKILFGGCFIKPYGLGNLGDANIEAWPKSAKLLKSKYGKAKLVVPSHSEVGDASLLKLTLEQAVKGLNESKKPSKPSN
Experiment: biochemical
Type: biochemical
pIC50: −log10 of the molar value.
Assign 1.0 to entries whose pIC50 meets or exceeds 5; assign 0.0 to the rest.

{"columns": ["molecule", "tested_target", "category_label"],
 "data": [
  ["O=C(O)c1ncsc1NS(=O)(=O)Cc1cc(Cl)cc(Cl)c1", "UniProtKB P52699", 1.0],
  ["N#Cc1cccc(CS(=O)(=O)Nc2cccnc2C(=O)O)c1", "UniProtKB P52699", 0.0],
  ["O=C(O)c1cnccn1", "UniProtKB P52699", 0.0],
  ["Cn1cnc(C(=O)O)c1", "UniProtKB P52699", 0.0],
  ["O=C(O)c1ncsc1NS(=O)(=O)c1ccncc1", "UniProtKB P52699", 0.0],
  ["O=C(O)c1ncccc1-c1ccoc1", "UniProtKB P52699", 0.0],
  ["O=C(O)c1cccc(-c2ccc(F)c(F)c2)n1", "UniProtKB P52699", 0.0],
  ["O=C(O)c1cccnn1", "UniProtKB P52699", 0.0],
  ["O=C(O)c1ncsc1NS(=O)(=O)Cc1ccc(Cl)c(Cl)c1", "UniProtKB P52699", 1.0],
  ["O=C(O)c1ncsc1NS(=O)(=O)c1ccccc1", "UniProtKB P52699", 0.0],
  ["O=C(Nc1cccnc1C(=O)O)c1cocn1", "UniProtKB P52699", 0.0]
]}

* * *

Biological target: VIM-1 (Pseudomonas aeruginosa, UniProt A0A0F7KYQ8)
Test: biochemical
Format: biochemical
Conditions: tested up to 200 μM

{"columns": ["molecule", "inhibition of VIM-1, in words"],
 "data": [
  ["O=C(O)c1ccc2ccccc2n1", "no inhibition"],
  ["O=C(O)c1cc2ccccc2cn1", "no inhibition"],
  ["Cn1cnc(C(=O)O)c1", "no detectable inhibition"],
  ["O=C(O)c1cccnn1", "no detectable inhibition"],
  ["O=C(O)c1cnccn1", "no detectable inhibition"]
]}

* * *

Biological target: NDM-1 (Klebsiella pneumoniae)
Experiment: biochemical
Assay type: biochemical
Details: 300 μM imipenem, 10 mM HEPES pH 7.5, 25 °C; average of at least two independent assays; read-out: NDM-1 IC50

{"columns": ["molecule", "sign_qualifier", "IC50 (µM)"],
 "data": [
  ["O=C(Cc1ccccc1)Nc1ccnc(C(=O)O)c1 [Compound 52]", "=", 11.6],
  ["O=C(Cc1cccs1)Nc1cccc(C(=O)O)n1 [Compound 29]", ">", 200],
  ["CCCCC(=O)Nc1cccc(C(=O)O)n1 [Compound 26]", "=", 19.4],
  ["O=C(Cc1ccccc1)Nc1ccc(C(=O)O)nc1 [Compound 56]", "=", 21.4],
  ["O=C(O)c1cccc(NC(=O)c2cocn2)n1 [Compound 25]", "=", 55.9]
]}
